Target: Nuclear receptor coactivator 1 (Homo sapiens) (UniProt Q15788)
Sequence (Q15788 whole entry, looked up): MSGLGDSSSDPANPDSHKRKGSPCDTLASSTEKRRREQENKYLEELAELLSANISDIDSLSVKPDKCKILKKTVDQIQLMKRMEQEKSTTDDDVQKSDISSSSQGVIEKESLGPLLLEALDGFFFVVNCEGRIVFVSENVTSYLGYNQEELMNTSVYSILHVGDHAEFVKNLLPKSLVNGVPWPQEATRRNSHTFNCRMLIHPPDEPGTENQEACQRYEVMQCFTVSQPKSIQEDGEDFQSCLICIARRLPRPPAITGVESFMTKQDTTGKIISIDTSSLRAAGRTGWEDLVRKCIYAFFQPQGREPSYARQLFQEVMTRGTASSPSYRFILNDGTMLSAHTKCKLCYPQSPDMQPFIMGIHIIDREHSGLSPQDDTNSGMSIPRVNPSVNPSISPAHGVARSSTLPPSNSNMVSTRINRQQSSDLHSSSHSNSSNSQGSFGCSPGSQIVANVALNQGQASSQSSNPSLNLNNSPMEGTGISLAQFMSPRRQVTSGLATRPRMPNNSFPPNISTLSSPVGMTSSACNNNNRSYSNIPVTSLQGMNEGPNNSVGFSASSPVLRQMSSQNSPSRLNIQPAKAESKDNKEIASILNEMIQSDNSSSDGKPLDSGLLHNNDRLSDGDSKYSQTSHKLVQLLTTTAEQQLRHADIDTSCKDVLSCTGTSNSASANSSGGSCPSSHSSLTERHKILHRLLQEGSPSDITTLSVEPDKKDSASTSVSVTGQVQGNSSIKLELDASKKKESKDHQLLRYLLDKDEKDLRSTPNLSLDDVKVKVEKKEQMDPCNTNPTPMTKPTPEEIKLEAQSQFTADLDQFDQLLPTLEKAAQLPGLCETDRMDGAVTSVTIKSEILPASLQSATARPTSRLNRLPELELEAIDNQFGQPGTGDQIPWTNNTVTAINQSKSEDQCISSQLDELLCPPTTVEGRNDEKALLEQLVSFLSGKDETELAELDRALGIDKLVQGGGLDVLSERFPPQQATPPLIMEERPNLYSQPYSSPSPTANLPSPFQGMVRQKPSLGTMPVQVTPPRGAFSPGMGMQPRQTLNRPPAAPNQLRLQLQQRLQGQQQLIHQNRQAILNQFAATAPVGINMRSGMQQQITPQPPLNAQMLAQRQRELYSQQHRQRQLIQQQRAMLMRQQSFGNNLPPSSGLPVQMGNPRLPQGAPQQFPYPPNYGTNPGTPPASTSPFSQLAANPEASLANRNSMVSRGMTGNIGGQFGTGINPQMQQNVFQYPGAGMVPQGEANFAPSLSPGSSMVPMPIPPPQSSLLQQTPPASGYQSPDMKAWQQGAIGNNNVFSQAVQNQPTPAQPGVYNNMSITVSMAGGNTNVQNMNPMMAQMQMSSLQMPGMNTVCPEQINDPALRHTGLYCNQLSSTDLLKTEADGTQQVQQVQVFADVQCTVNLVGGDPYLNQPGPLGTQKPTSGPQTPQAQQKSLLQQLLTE
Experiment: SRC1 coactivator transcriptional activity inhibitors, primary screen, cell-based, luminescence (AID 588354);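 further: 0% = DMSO treated cells and 100% = gossypol at 36 µM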
Conditions: HEK293 GAL4-SRC1 luciferase reporter, at 3.6 µM
Among all 360,000 compounds or so, about 430 (0.12%) were called active.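 How the source made its calls: active means inhibition above the campaign mean plus 3 SD, with each screening campaign given its own cutoff (cut at about 60% in these data); inactive means the rest.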 This excerpt belongs to a sample that is enriched for actives.
Possible outcomes: T (active), F (inactive)

smiles: CN(C)c1ccc(CSc2ccccc2)cc1
category label: F
--
smiles: CCCCN(C(=O)CCNC(=O)NC12CC3CC(CC(C3)C1)C2)c1c(N)n(CCCC)c(=O)[nH]c1=O
category label: F
--
smiles: CCOc1ccc(S(=O)(=O)N2CCN(C(=O)c3oc4ccccc4c3C)CC2)cc1
category label: F
--
smiles: CCCCCCCCn1c2c(c(=N)c3c1CCC3)CCCC2
category label: T
--
smiles: c1ccc2cc3c(NCCN4CCOCC4)ccnc3cc2c1
category label: T
--
smiles: C[C@H]1CN([C@@H](C)CO)C(=O)c2cc(Br)cnc2O[C@H]1CN(C)S(=O)(=O)c1cccs1
category label: F
--
smiles: O=C(c1ccc[nH]c1=S)N1CCN(S(=O)(=O)c2ccc(Br)cc2Cl)CC1
category label: F
--
smiles: COc1ccc(OC)c(S(=O)(=O)Nc2cccc(-c3ccc4nncn4n3)c2)c1
category label: F
--
smiles: O=C(Nc1cccc2c1CCCC2)C1CCN(C(=O)NC2CCCCC2)CC1
category label: F
--
smiles: CCN(c1ccccc1)S(=O)(=O)c1ccc(OCC(=O)N2CCCC2)cc1
category label: F

* * *

Biological target: Nuclear receptor coactivator 1 (Homo sapiens)
Test: SRC1 coactivator transcriptional activity inhibitors, primary screen, cell-based, luminescence (AID 588354);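 further: 0% = DMSO treated cells and 100% = gossypol at 36 µM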
Conditions: HEK293 GAL4-SRC1 luciferase reporter, at 3.6 µM, stronger effect = higher value
Hit rate of the full screen: of about 360,000 compounds, about 430 (0.12%) were called active. For the sample, actives were picked, then their nearest neighbours and some compounds at random.
endpoint name: inhibition (%)

compound: CCN(C(=O)COC(=O)CCOc1cccc(C)c1)c1c(N)n(Cc2ccccc2)c(=O)[nH]c1=O
target entity: Nuclear receptor coactivator 1 (Homo sapiens)
measurement: 4.13

compound: CC12C(=O)N(n3cnnc3)C(=O)C1C1C=CC2C1 (centres undefined)
target entity: Nuclear receptor coactivator 1 (Homo sapiens)
measurement: -10.2

compound: O=C(COC(=O)C1CCN(S(=O)(=O)c2ccc3c(c2)OCCO3)CC1)Nc1ccccc1OC(F)F
target entity: Nuclear receptor coactivator 1 (Homo sapiens)
measurement: 6.03

compound: CCOC(=O)c1ccccc1N1C(=O)C2Sc3[nH]c(=O)sc3C(/C=C/c3ccccc3)C2C1=O (centres undefined)
target entity: Nuclear receptor coactivator 1 (Homo sapiens)
measurement: -1.18

compound: CCN(CC)C(=O)CSC1c2ccccc2C(=O)N1c1ccccc1 (centres undefined)
target entity: Nuclear receptor coactivator 1 (Homo sapiens)
measurement: -5.03

compound: COc1cc(CN2CCNC(=O)C2CC(=O)NCCc2ncccc2C)cc(OC)c1 (centres undefined)
target entity: Nuclear receptor coactivator 1 (Homo sapiens)
measurement: 14.8

compound: C[C@@H](NC(=O)c1nc[nH]c1C(=O)N1CCN(C(=O)OC(C)(C)C)CC1)c1ccccc1
target entity: Nuclear receptor coactivator 1 (Homo sapiens)
measurement: -15.6

compound: CCCCOC(=O)NCN1C(=O)C2C3C=CC(C3)C2C1=O (centres undefined)
target entity: Nuclear receptor coactivator 1 (Homo sapiens)
measurement: 1

compound: Cn1cc(/C=C/C(=O)N2CCCC(C(=O)c3ccc(C(F)(F)F)cc3)C2)cn1 (centres undefined)
target entity: Nuclear receptor coactivator 1 (Homo sapiens)
measurement: 8.39

* * *

Below, each entry is listed alongside its reported inhibition.
Biological target: Nuclear receptor coactivator 1 (Homo sapiens) (UniProt Q15788)
Experiment: SRC1 coactivator transcriptional activity inhibitors, primary screen, cell-based, luminescence (AID 588354);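 further: 0% = DMSO treated cells and 100% = gossypol at 36 µM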
Settings: HEK293 GAL4-SRC1 luciferase reporter, at 3.6 µM, stronger effect = higher value
The campaign covered roughly 360,000 compounds. About 430 (0.12%) were called active. The sample as a whole holds a higher share of actives than the screen did.
endpoint name: inhibition (%)

smiles: CC(C)(C)c1ccccc1NC(=O)CN1C(=O)NC2(CCCC2)C1=O
target entity: Nuclear receptor coactivator 1 (Homo sapiens) (UniProt Q15788)
measurement: -13.8

smiles: COc1ccc(CNC(=O)COC(=O)c2sccc2C)cc1OC
target entity: Nuclear receptor coactivator 1 (Homo sapiens) (UniProt Q15788)
measurement: 2.6

smiles: COCCOC1CCN(C(=O)c2ccc(OC)c(OC3CCN(C(C)C)CC3)c2)CC1
target entity: Nuclear receptor coactivator 1 (Homo sapiens) (UniProt Q15788)
measurement: -0.27

smiles: CCOC(=O)N1CCC(O)(c2cc(C)c(C)cc2C)CC1
target entity: Nuclear receptor coactivator 1 (Homo sapiens) (UniProt Q15788)
measurement: -15.8
